tested on: Alopecurus myosuroides (ALOMY); assay: Glasshouse assay for herbicidal activity, pre-/post-emergence (percentage phytotoxicity); type: in vivo; details: Alopecurus myosuroides, 360 h; Rate 250 g/ha; post-emergence; visual assessment 15 DAA; 100%=total damage, 0%=no damage; read-out: Post-emergence herbicidal activity (percentage phytotoxicity), ALOMY POST
Recorded Metric: pest or weed control at 250 g/ha

Query: pest or weed control at 250 g/ha for Cc1cc(OCC(F)(F)F)cc(C)c1C1C(=O)CC(CCNC(=O)C2=NOC(C)(C)C2)C1=O (centres unmarked) ?
Response: 100%

Query: pest or weed control at 250 g/ha for Cc1cc(C)c(C2C(=O)CC(CCNC(=O)Nc3ccccc3F)C2=O)c(C)c1 (centres unmarked) ?
Response: 20%

Query: pest or weed control at 250 g/ha for Cc1cc(-c2ncccc2F)cc(C)c1C1C(=O)CC(CCNC(=O)Nc2ccccn2)C1=O.Cl (centres unmarked) ?
Response: 60%

Query: pest or weed control at 250 g/ha for Cc1cc(C)c(C2C(=O)CC(CCNc3ncccc3C#N)C2=O)c(C)c1 (centres unmarked) ?
Response: 80%

Query: pest or weed control at 250 g/ha for Cc1cc(-n2cc(Cl)cn2)cc(C)c1C1C(=O)CC(CCNC(=O)NOC(C)(C)C)C1=O (centres unmarked) ?
Response: 70%

Query: pest or weed control at 250 g/ha for Cc1cc(C)c(C2C(=O)CC(CCNS(=O)(=O)c3ccccc3Cl)C2=O)c(C)c1 (centres unmarked) ?
Response: 10%

Query: pest or weed control at 250 g/ha for Cc1cc(C)c(C2C(=O)CC(CCNc3ncc(F)cn3)C2=O)c(C)c1 (centres unmarked) ?
Response: 100%

Query: pest or weed control at 250 g/ha for Cc1cc(C)c(C2C(=O)CC(CCNS(=O)(=O)c3ccccc3F)C2=O)c(C)c1 (centres unmarked) ?
Response: 20%
